experimental.details: Metabolic stability in rat liver microsomes
Assay type: in vitro ADME
property.measured: half-life at 1 μmol/L (min)
Please reply with the bare figure in min and do not write the unit itself.

I am curious: what half-life at 1 μmol/L value has been reported for C=C1C(=O)[C@@]23C(C(=O)C[C@@H]1[C@H]2OC(=O)[C@@H](N)C(C)C)[C@]12CCCC(C)(C)C1C[C@H]3OC2=O (stereo partly shown) ?
31.2

###

experimental.details: Metabolic stability in mouse liver microsomes
Format: in vitro ADME
property.measured: microsomal CLint at 1 μmol/L (µL/min/mg)
Reply with just the number (in µL/min/mg).

I'd like to know its microsomal CLint at 1 μmol/L. The compound in question is C=C1C(=O)[C@@]23C(C(=O)C[C@@H]1[C@H]2OC(=O)[C@@H](N)C(C)C)[C@]12CCCC(C)(C)C1C[C@H]3OC2=O (stereo partly shown) [a2]
146

###

experimental.details: Pharmacokinetic parameters in rats
Format: in vivo
measurement.setup: male, SD, rat, plasma, iv, 20 mg/kg
property.measured: half-life (h)
# unit: h | format: bare number

Recorded half-life for C=C1C(=O)[C@@]23C(C(=O)C[C@@H]1[C@H]2OC(=O)[C@@H](N)C(C)C)[C@]12CCCC(C)(C)C1C[C@H]3OC2=O (stereo partly shown) [a2] , please?
3.93

###

experimental.details: Caco-2 permeability assay
Assay type: in vitro ADME, human
measurement.setup: human, Caco-2, Papp (A‒B), Mean ± RSD, direction A‒B, n = 2
property.measured: Papp (×10⁻⁶ cm/s)
Number only, in ×10⁻⁶ cm/s; omit the unit.

C[C@H]1O[C@@H](O[C@H]2[C@@H](O)C[C@H](O[C@H]3[C@@H](O)C[C@H](O[C@H]4CC[C@@]5(C)[C@H](CC[C@@H]6[C@@H]5C[C@@H](O)[C@]5(C)[C@@H](C7=CC(=O)OC7)CC[C@]65O)C4)O[C@@H]3C)O[C@@H]2C)C[C@H](O)[C@@H]1O [Digoxin] : 0.13

Looking for the measured Papp of C=C1C(=O)[C@@]23C(C(=O)C[C@@H]1[C@H]2OC(=O)[C@@H](N)C(C)C)[C@]12CCCC(C)(C)C1C[C@H]3OC2=O (stereo partly drawn) [a2] , can you help?
16.1

Please look up its Papp: CC(C)NCC(O)COc1cccc2ccccc12 (stereo not drawn) [Propranolol]
28.3

###

experimental.details: Metabolic stability in human liver microsomes
Format: in vitro ADME
property.measured: half-life at 1 μmol/L (min)
Quick reminder: number only, in min, skip the unit.

Request the reported half-life at 1 μmol/L associated with C=C1C(=O)[C@@]23C(C(=O)C[C@@H]1[C@H]2OC(=O)[C@@H](N)C(C)C)[C@]12CCCC(C)(C)C1C[C@H]3OC2=O (stereo partly shown) [a2]
34.9

###

experimental.details: Metabolic stability in human liver microsomes
Format: in vitro ADME
property.measured: microsomal CLint at 1 μmol/L (µL/min/mg)
Could you give me the number in µL/min/mg? Just the number is fine.

Fill in the blank: the reported microsomal CLint at 1 μmol/L of C=C1C(=O)[C@@]23C(C(=O)C[C@@H]1[C@H]2OC(=O)[C@@H](N)C(C)C)[C@]12CCCC(C)(C)C1C[C@H]3OC2=O (stereo partly shown) is ____.
99.4

###

experimental.details: Pharmacokinetic parameters in rats
Type: in vivo
measurement.setup: male, SD, rat, plasma, iv, 20 mg/kg
property.measured: AUC(0-inf) (ng·h/mL)
Field format: number, assumed ng·h/mL, no unit text.

Given the compound C=C1C(=O)[C@@]23C(C(=O)C[C@@H]1[C@H]2OC(=O)[C@@H](N)C(C)C)[C@]12CCCC(C)(C)C1C[C@H]3OC2=O (stereo partly shown) , what is its reported AUC(0-inf)?
14800
